Type: physicochemical
experimental setup: Cu(II) complex of the named ligand; 30% (v/v) DMSO/H2O; T = 25.0 °C; I = 0.1 M (KCl)
logβ [CuLH−1] by entry:

{"columns": ["compound", "logβ [CuLH−1]"],
 "data": [
  ["CNC(=S)NN=Cc1cc2c(cc1O)CC[C@@H]1[C@@H]2CC[C@]2(C)[C@@H](O)CC[C@@H]12", 9.59],
  ["CN(C)C(=S)NN=Cc1cc2c(cc1O)CC[C@@H]1[C@@H]2CC[C@]2(C)[C@@H](O)CC[C@@H]12", 10.11],
  ["C[C@]12CC[C@@H]3c4cc(C=NNC(N)=S)c(O)cc4CC[C@H]3[C@@H]1CCC2O (some centres unmarked)", 9.84],
  ["C[C@]12CC[C@@H]3c4cc(C=NNC(N)=O)c(O)cc4CC[C@H]3[C@@H]1CCC2O (some centres unmarked)", 5.16]
]}

---

Type: physicochemical
experimental setup: Cu(II) complex of the named ligand; 30% (v/v) DMSO/H2O; T = 25.0 °C; I = 0.1 M (KCl)
result type: logβ [CuL]+

{"columns": ["compound", "test result"],
 "data": [
  ["CN(C)C(=S)NN=Cc1cc2c(cc1O)CC[C@@H]1[C@@H]2CC[C@]2(C)[C@@H](O)CC[C@@H]12", 13.96],
  ["C[C@]12CC[C@@H]3c4cc(C=NNC(N)=S)c(O)cc4CC[C@H]3[C@@H]1CCC2O (some centres unmarked)", 13.79],
  ["C[C@]12CC[C@@H]3c4cc(C=NNC(N)=O)c(O)cc4CC[C@H]3[C@@H]1CCC2O (some centres unmarked)", 11.63],
  ["CNC(=S)NN=Cc1cc2c(cc1O)CC[C@@H]1[C@@H]2CC[C@]2(C)[C@@H](O)CC[C@@H]12", 13.68]
]}

---

Type: physicochemical

{"columns": ["compound", "pKa [CuL]+"],
 "data": [
  ["CNC(=S)NN=Cc1cc2c(cc1O)CC[C@@H]1[C@@H]2CC[C@]2(C)[C@@H](O)CC[C@@H]12", 4.08],
  ["C[C@]12CC[C@@H]3c4cc(C=NNC(N)=O)c(O)cc4CC[C@H]3[C@@H]1CCC2O (some centres unmarked)", 6.48],
  ["C[C@]12CC[C@@H]3c4cc(C=NNC(N)=S)c(O)cc4CC[C@H]3[C@@H]1CCC2O (some centres unmarked)", 3.95],
  ["CN(C)C(=S)NN=Cc1cc2c(cc1O)CC[C@@H]1[C@@H]2CC[C@]2(C)[C@@H](O)CC[C@@H]12", 3.85]
]}

---

assay info: DPPH free radical scavenging assay
experimental setup: DPPH:compound = 1:1 ratio after 30 min, ethanol, 25 °C
result type: % Scavenging Effect

{"columns": ["molecule", "result type", "test result"],
 "data": [
  ["CNC(=S)NN=Cc1cc2c(cc1O)CC[C@@H]1[C@@H]2CC[C@]2(C)[C@@H](O)CC[C@@H]12", "% Scavenging Effect", "31.0%"],
  ["C[C@]12CC[C@@H]3c4cc(/C=N/N=C(N)[O-])c([O-])cc4CC[C@H]3[C@@H]1CC[C@@H]2O.O.[Cu+2]", "% Scavenging Effect", "8.5%"],
  ["C[C@]12CC[C@@H]3c4cc(/C=N/N=C(N)[S-])c([O-])cc4CC[C@H]3[C@@H]1CC[C@@H]2O.O.[Cu+2]", "% Scavenging Effect", "90.8%"],
  ["NC(=S)N/N=C/c1ccccc1O [STSC, salicylaldehyde TSC, reference compound]", "% Scavenging Effect", "23.4%"],
  ["CN(C)C([S-])=N/N=C/c1cc2c(cc1[O-])CC[C@@H]1[C@@H]2CC[C@]2(C)[C@@H](O)CC[C@@H]12.O.[Cu+2]", "% Scavenging Effect", "40.4%"]
]}
